Field: IC50. Provide a value for each of the molecules that follow.
- System: hPMBC
- Test summary: Chymotrypsin-like ProteasomeGlo assay in hPBMC
- Format: cell-based
- Run conditions: Homo sapiens; read-out: Pglo hPBMC

So what IC50 did CC(=O)N[C@H]1CC(=O)N2CCCC(CCOc3ccc(C)c(c3)CNC(=O)C(c3ccc4ncccc4c3)NC1=O)C2 (stereo partly drawn) get with hPMBC?
100 to 500 nM

Another molecule: Cc1ccc2cc1CNC(=O)C(c1cnn(C)c1)NC(=O)CCCCC(=O)N1CCCC(CCO2)C1 (stereo not drawn)
< 100 nM

Another molecule: Cc1ccc2cc1CNC(=O)[C@H](CCc1ccccc1)NC(=O)[C@@H](NC(=O)C1(C)CCNCC1)CC(=O)N1CCCC(CCO2)C1 (stereo partly drawn)
< 100 nM

Another molecule: Cc1ccc2cc1CNC(=O)[C@H](CCc1ccccc1)NC(=O)[C@@H](NC(=O)Cc1cc(Cl)c(N)c(Cl)c1)CC(=O)N1CCCC(CCO2)C1 (stereo partly drawn)
< 100 nM

Another molecule: Cc1ccc2cc1CNC(=O)[C@H](CCc1ccccc1)NC(=O)[C@@H](NC(=O)OCc1ccccc1)CCCCC(=O)NCCCCO2
< 100 nM

Another molecule: COc1ccc(CC(=O)N[C@H]2CC(=O)N3CCCC(CCOc4ccc(C)c(c4)CNC(=O)[C@H](CCc4ccccc4)NC2=O)C3)cc1 (stereo partly drawn)
< 100 nM
